Recorded composite z-score, one value per entry.
Test system: XIP peptide (Xip251-270) binding
Test: small-molecule binders of XIP peptide, primary screen, biochemical, small-molecule microarray, fluorescence 635/667 nm, 0.1 µg/mL protein (AID 1182)
Settings: fluorescent protein binding, 635 nm, higher = more signal, called active from +8 up or from −8 down
Just the number, please, no unit attached.

Illustrative cases are given below, each with its answer.
COMPOUND: O=C1[C@H]2[C@H]3[C@H](O)[C@H](O)CC(=NOC[C@@H](O)COCc4ccco4)[C@@H]3CC[C@H]2C(=O)N1Cc1ccccc1
composite z-score: 0.41
--
COMPOUND: C#CCCCON=C1[C@H]2CCn3c(=O)n([C@@H](CC)c4ccccc4)c(=O)n3[C@H]2[C@H](O)[C@@H]2O[C@H]12
composite z-score: 0.967
--
COMPOUND: CCN(CC)CC(O)CN1CCCCc2nc(C)c(C)cc21 (centres undefined)
composite z-score: -0.344
--
COMPOUND: CC(CCN1CCCc2nc(C)c(C)cc21)=NOC[C@@H](C)[C@H](OCc1ccccc1)C(C)C
composite z-score: -0.563
--
COMPOUND: C=CC[C@@H]1C=CC(ON=C(C)C)[C@@H](CO)O1 (some centres undefined)
composite z-score: -0.649
--
COMPOUND: CC(C)CON=C1C[C@@H](O)[C@@H](O)[C@@H]2[C@@H]3C(=O)N(C(C)(C)C)C(=O)[C@@H]3CC[C@@H]12
composite z-score: 0.0494

For record CCN1C(=O)[C@H]2[C@H]3[C@H](O)[C@H](O)CC(=NOC[C@@H](O)[C@H]4O[C@@H]5OC(C)(C)O[C@@H]5[C@H]4O)[C@@H]3CC[C@H]2C1=O the listed composite z-score is -0.0371

Reported composite z-score ( CC(C)=NO[C@H](C)c1cn([C@@H]2COC[C@H]2O)nn1 ) = 0.496

composite z-score in this record for COc1ccc(COC(=O)NN=C2C[C@@H](O)[C@@H](O)[C@@H]3[C@@H]4C(=O)N(C[C@@H]5CCCO5)C(=O)[C@@H]4CC[C@@H]23)cc1 : -0.155

Lab note: O=C(NN=C1C[C@@H](O)[C@@H](O)[C@@H]2[C@@H]3C(=O)N(Cc4ccccc4)C(=O)[C@@H]3CC[C@H]12)OCc1ccccc1 gave composite z-score of -0.578

Looking up C[C@@H]1CC[C@H]2C(=O)OC(Cc3ccccc3)CN2[C@H]1c1ccc(Br)cc1 (some centres undefined) , I see its composite z-score listed as -0.0207

Lab book: composite z-score of O=C1CCCC=C1C(O)COCc1ccccc1 (centres undefined) noted as 0.253

* * *

In this section, each of the compounds is paired with its reported composite z-score.
Biological target: Albumin (Bos taurus) (UniProt P02769)
Sequence (P02769 whole entry, looked up): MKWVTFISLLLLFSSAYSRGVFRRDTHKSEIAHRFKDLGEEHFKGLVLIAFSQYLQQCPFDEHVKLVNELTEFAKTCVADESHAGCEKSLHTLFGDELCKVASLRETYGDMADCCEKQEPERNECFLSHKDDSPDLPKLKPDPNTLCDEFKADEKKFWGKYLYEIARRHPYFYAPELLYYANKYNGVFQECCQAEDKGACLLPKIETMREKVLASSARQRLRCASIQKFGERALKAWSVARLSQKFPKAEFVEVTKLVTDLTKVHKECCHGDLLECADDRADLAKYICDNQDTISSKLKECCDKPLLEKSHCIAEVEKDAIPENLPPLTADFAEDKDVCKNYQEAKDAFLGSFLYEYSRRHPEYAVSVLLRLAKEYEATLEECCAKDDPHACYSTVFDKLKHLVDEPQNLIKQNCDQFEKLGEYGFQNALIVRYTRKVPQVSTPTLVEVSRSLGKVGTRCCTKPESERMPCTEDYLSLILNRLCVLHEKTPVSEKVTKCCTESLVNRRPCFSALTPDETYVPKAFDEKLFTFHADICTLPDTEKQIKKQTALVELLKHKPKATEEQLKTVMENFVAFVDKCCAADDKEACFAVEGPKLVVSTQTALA
Assay: bovine serum albumin binders on microarray, profiling panel, artefact control for SMM control protein annotation, biochemical, small-molecule microarray, Alexa647 label, 635/667 nm fluorescence (AID 1118);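 note: score merges 667 nm emission intensity and signal-to-noise per printed compound spot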
Conditions: BSA-A647 binding, fluorescence 635 nm, higher = more signal
Give the figure only, with no unit attached.

Completed entries (count: 2):
COMPOUND: CCc1cc2c(nc1CC)CCN(CCC(C)=NOCC[C@@H]1C=C[C@H](OC(C)=O)[C@@H](COC(C)=O)O1)C2
composite z-score: 0.466
--
COMPOUND: C[C@H]1CC[C@@H](C(=O)O)N[C@@H]1c1cccc(N2CCCC2=O)c1
composite z-score: -0.0315

In plain terms, CC(C)=CCCC(C)=CCON=C1C[C@@H](O)[C@@H](O)[C@@H]2[C@@H]3C(=O)N(Cc4ccc5c(c4)OCO5)C(=O)[C@@H]3CC[C@H]12 has a documented composite z-score of 0.0686

Recorded result, C=CC[C@@H]1C=C[C@H](ON=CC[C@@H]2C=C[C@H](OC(C)=O)[C@@H](COC(C)=O)O2)[C@@H](CO)O1 , composite z-score: 0.0919

Data point: COCC#Cc1ccc([C@@H]2N[C@H](C(=O)O)CC[C@H]2C)cc1 ; composite z-score = -0.202

Entry under test: CON=C(C)CCN1CCc2nc(-c3ccccc3)c(-c3ccccc3)cc2C1 . Its composite z-score was 0.633

According to the records, this compound CC(C)CON=C1C[C@@H](O)[C@@H](O)[C@@H]2[C@@H]3C(=O)N(Cc4ccccc4)C(=O)[C@@H]3CC[C@H]12 displays composite z-score of 0.428

Given item COC(=O)[C@H](C)NC(=O)CCC1CC(OC(=O)NCc2cccc3ccccc23)CC2(CCCC(COC(=O)NCCc3ccccc3OC)O2)O1 (stereo partly drawn) , the value recorded as its composite z-score is 0.707

* * *

Overview of reported z-score across a group of compounds:
Molecular target: NADPH oxidase 2 (Homo sapiens)
Experiment: NOX2-dependent H2O2 signal modulators, primary screen, NOX inhibitor project, cell-based, HEK293-NOX2, PMA-stimulated, Amplex Red fluorescence (AID 1159)
Settings: 45 min, higher = more signal, called active from +8 up or from −8 down
Enter a number only.

Worked set:
SMI: CC1(C)O[C@H]2O[C@H]([C@H](O)CON=C3[C@H]4CCn5c(=O)n(-c6ccccc6)c(=O)n5[C@H]4[C@H](O)[C@@H]4O[C@H]34)[C@H](O)[C@H]2O1
z-score: 0.197
--
SMI: CCN1C(=O)[C@H]2[C@H]3[C@H](O)[C@H](O)CC(=NO[C@@H](C)c4cc(-c5c(C)cc(C)cc5C)no4)[C@@H]3CC[C@H]2C1=O
z-score: 0.204

Please look at the following compound next.
The recorded z-score for COc1ccc(O[C@H]2C=C[C@@H](c3ccccc3)O[C@@H]2COC(=O)NCc2cccc3ccccc23)cc1 is 0.5

* * *

The following compounds are listed with their measured z-score values.
Target: NADPH oxidase 2 (Homo sapiens) (UniProt P04839)
Sequence (P04839 whole entry, looked up): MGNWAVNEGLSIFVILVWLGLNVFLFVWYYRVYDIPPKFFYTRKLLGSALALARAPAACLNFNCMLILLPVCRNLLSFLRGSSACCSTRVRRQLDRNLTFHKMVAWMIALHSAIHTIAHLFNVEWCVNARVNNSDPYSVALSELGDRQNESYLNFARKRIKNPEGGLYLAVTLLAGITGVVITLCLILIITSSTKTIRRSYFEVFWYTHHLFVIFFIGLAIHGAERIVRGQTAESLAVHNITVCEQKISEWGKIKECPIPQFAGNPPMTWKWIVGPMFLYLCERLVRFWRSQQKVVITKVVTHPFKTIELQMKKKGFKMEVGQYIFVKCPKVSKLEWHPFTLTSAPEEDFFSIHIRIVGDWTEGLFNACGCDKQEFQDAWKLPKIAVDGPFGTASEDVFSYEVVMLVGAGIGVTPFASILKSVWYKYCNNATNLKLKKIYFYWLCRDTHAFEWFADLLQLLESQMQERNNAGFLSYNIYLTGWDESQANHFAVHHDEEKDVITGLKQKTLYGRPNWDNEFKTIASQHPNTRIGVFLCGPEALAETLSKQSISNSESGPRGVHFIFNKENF
Test: NOX2-dependent H2O2 signal modulators, primary screen, NOX inhibitor project, cell-based, HEK293-NOX2, PMA-stimulated, Amplex Red fluorescence (AID 1159)
Conditions: 45 min, higher = more signal, called active from +8 up or from −8 down
Answer field: number only, no words.

Guide cases for z-score, answers given:
COMPOUND: CCCNC(=O)OC[C@H]1O[C@H](CCON=C[C@@H](NS(=O)(=O)c2ccc(C)cc2)[C@H](C)C=CCC(=O)OC)C=C[C@@H]1Oc1ccc(OC)cc1
z-score: 0.173
//
COMPOUND: C=CC[C@@H]1C=C[C@H](ON=C[C@@H](NS(=O)(=O)c2ccc(C)cc2)[C@H](C)C=CCC(=O)OC)[C@@H](CO)O1
z-score: -0.0272
//
COMPOUND: CCCNC(=O)OC[C@H]1O[C@H](CCON=C[C@@H](C)[C@H](OCc2ccccc2)C(C)C)C=C[C@@H]1Oc1ccc(OC)cc1
z-score: -1.7
//
COMPOUND: COC(=O)[C@@H]1CC[C@H](C)[C@@H](c2ccc(Br)cc2)N1C(=O)C(F)(F)F
z-score: 0.301
//
COMPOUND: CC(C)(C)N1C(=O)[C@H]2[C@H]3[C@H](O)[C@H](O)CC(=NNC(=O)OCc4ccccc4)[C@@H]3CC[C@H]2C1=O
z-score: 0.788

What the record says about CC(CCN1CCCc2nc(C)c(C)cc21)=NO[C@H](C)c1cn([C@H](CO)Cc2ccccc2)nn1 : z-score is -0.443

Quick note, z-score for C[C@@H]1CC[C@H]2C(=O)OC(Cc3ccccc3)CN2[C@H]1c1ccc(Br)cc1 (stereo partly specified) landed at 0.379

Quick note, z-score for Cc1ccc(C(C)C)n1C(=O)OC(C)(C)C landed at -0.137

Note to self: z-score recorded for CCOC(=O)CCN1C(=O)[C@H]2[C@H]3[C@H](O)[C@H](O)CC(=O)[C@@H]3CC[C@H]2C1=O was 0.583

Consider CO[C@H]1COC(=O)CCC[C@H](C)[C@@H](OC)COC(=O)CC=C[C@@H]1C . Its measured z-score is -0.123

Item: C[C@H]1CC[C@H]2C(=O)OC(COc3ccc(C(C)(C)C)cc3)CN2[C@@H]1c1ccc(Br)cc1 (stereo partly specified) | z-score: 0.426

Value of z-score reported for the compound CCN1C(=O)[C@H]2[C@H]3[C@H](O)[C@H](O)CC(=NOC[C@@H](O)[C@H]4O[C@@H]5OC(C)(C)O[C@@H]5[C@H]4O)[C@@H]3CC[C@H]2C1=O is -0.842

Data point: CCOC(=O)NN=C1C[C@@H](O)[C@@H](O)[C@@H]2[C@@H]3C(=O)N(C[C@@H]4CCCO4)C(=O)[C@@H]3CC[C@H]12 ; z-score = 0.192

Kindly note the recorded z-score for COc1ccc(OC[C@H]2CN3[C@@H](CC[C@@H](C)[C@@H]3c3ccc(Br)cc3)C(=O)O2)cc1 , which is -0.783

Briefly, z-score measured for COC(=O)[C@H](C)NC(=O)CCC1CC(OC(=O)NCc2cccc3ccccc23)CC2(CCCC(COC(=O)NCCOc3ccccc3)O2)O1 (stereo partly specified) : 0.00289

The measured z-score associated with COC(=O)C(C(=O)OC)C1CCCC(=O)C1 (stereo unspecified) reads -1.18
